Origin of the recorded values: PubChem BioAssay (NCI)

Assay Overview: NCI Yeast Anticancer Drug Screen. Data for the bub3 strain (AID 167)
Protocol Conditions: S. cerevisiae bub3 mutant strain, at 50.0 µM, active compounds read high
Method: Growth inhibition of yeast strains with defined genetic alterations is measured as a screen for potential anti-cancer activity. Selected strains with alterations in DNA damage repair or cell cycle control were exposed to compounds and growth inhibition was measured relative to vehicle treated controls. The strain used in this assay is bub3
The panel holds about 79,000 compounds, 15% with a hit somewhere; the sample as a whole holds those more often.
Catalogue of molecules with associated growth inhibition
Report only the number, with the unit % understood.

# count of solved cases: 5
{"Molecule": "CNC(=O)N1N[C@H](c2ccccc2)[C@@H]1c1ccccc1", "Result Unit": "%", "growth inhibition": 46.9}
{"Molecule": "COc1ccc2c(c1)CCc1c-2ccc(C)c1CCC(=O)O", "Result Unit": "%", "growth inhibition": 60.2}
{"Molecule": "c1ccc(N/N=C(/CC/C(=N\\Nc2ccccc2)c2ccccc2)c2ccccc2)cc1", "Result Unit": "%", "growth inhibition": 95.9}
{"Molecule": "C[N+]12CC3C4CC(C3C1)C2C4 (centres undefined)", "Result Unit": "%", "growth inhibition": 13.6}
{"Molecule": "CCCCCCC(C)c1ccccc1O (centres undefined) (tested in a mixture with another compound)", "Result Unit": "%", "growth inhibition": 93}

Asked: Which growth inhibition value is on record for COc1ccc(C(=O)Oc2c(Br)cc(Br)cc2Br)cc1 ?
Given back: 87.8

Asked: And what about the molecule Nc1ccc(Sc2c3ccccc3nc3ccccc23)cc1 ?
Given back: 85

Asked: Queued: CC1(C)N=C(N)N=C(N)N1c1cccc(CCCCC(=O)CCl)c1
Given back: 86.7
